Give Kd for every item shown.
Biological target: T1, human PVR (SPR of the humanized variants, Example 5) (human, UniProt P15151 21-343)
T1 sequence: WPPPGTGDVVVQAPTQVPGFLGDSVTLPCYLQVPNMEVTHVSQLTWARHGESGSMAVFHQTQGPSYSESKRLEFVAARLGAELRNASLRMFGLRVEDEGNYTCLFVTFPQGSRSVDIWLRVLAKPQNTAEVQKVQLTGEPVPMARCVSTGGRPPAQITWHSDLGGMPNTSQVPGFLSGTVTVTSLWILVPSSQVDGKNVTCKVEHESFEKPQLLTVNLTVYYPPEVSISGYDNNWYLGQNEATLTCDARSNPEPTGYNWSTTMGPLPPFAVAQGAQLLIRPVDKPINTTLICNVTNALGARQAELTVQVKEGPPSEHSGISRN
Test: SPR
Your answer should be a number followed by the unit of measure.

Query: Requested field: Kd. Item: IgG4(S241P)_N56E_VH1/Vκ4 (antibody, V domains shown, humanized 5B9 variant with Vk4; also called VH1/Vk4) VH: QVQLVQSGAELKKPGASVKISCKATGYTFSNYWIEWIKQAPGQGLEWIGEIFPGSGRINFNEKFKGRATFTADTSIDTTYMQLSSLTSDDSAVYYCARTKIYGNSFDYWGQGTTVTVSS VL: DIQMTQSPSSLSASVGDRVTITCRASQDVGTAVAWYQQKPGKAPKSLIYWASSRHEGVPSRFSGSGSGTDFTLTISSLQPEDFATYFCQQYSRYPLTFGQGTKLEIK
Result: 69.3 nM

Query: Requested field: Kd. Item: chimeric 5B9 N56E variant, IgG4(S241P) N56E_VH0/VK0 (antibody, name in Kabat numbering, V domains shown, Human IgG4 (S241P) constant region; also called chimeric N56E mutated parental antibody) VH: QVQLQQSGAELMKPGASVKISCKATGYTFSNYWIEWIKQRPGHGLEWIGEIFPGSGRINFNEKFKGKATFTADTSSDTTYMQLSSLTSADSAVYYCARTKIYGNSFDYWGQGTTLTVSP VL: DIMMTQSHKFMSTSVGDRVNITCKASQDVGTAVVWYQQKPGQSPKLLIYWASSRHEGVPDRFTGSGSGTDFTLTISNVQSEDLSDYFCQQYSRYPLTFGAGTKLELK
Result: 5.54 nM

Query: Requested field: Kd. Item: humanized 5B9 variant VH5/VK3 (antibody, V domains shown) VH: QVQLVQSGAEVKKPGASVKVSCKATGYTFSNYWIEWVRQAPGQGLEWMGEIFPGSGRINFNEKFKGRVTFTADTSISTAYMELSRLRSDDTAVYYCARTKIYGNSFDYWGQGTLVTVSS VL: DIQMTQSPSSLSASVGDRVTITCRASQDVGTAVVWYQQKPGKAPKLLIYWASSRHEGVPSRFSGSGSGTDFTLTISSLQPEDFATYFCQQYSRYPLTFGQGTKLEIK
Result: 7.41 nM

# credit: patent US20260152568A1
